test system: TDF; assay: H1.0 immunofluorescence intensity relative to DMSO (% of DMSO); higher = stronger H1.0 induction, active = 120 or more; details: concentration: 10 µM; 24 h;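 note: TDF is a line of transformed human dermal fibroblasts of mesenchymal origin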
METRIC: H1.0 immunofluorescence intensity

For `CC1(NC2=NS(=O)(=O)c3sc(Cl)cc3N2)CC1` , what is its reported H1.0 immunofluorescence intensity?
96.1 (inactive)

Try CC(=O)OC1(C(C)=O)CCC2C3C=C(Cl)C4=CC(=O)C5CC5C4(C)C3CCC21C (centres undefined) [Cyproterone Acetate] next.
103 (inactive)

Try Cl.Cl.NCCNc1ncc(C(N)=O)c(Nc2cccc(C(F)(F)F)c2)n1.O.O [Syk Inhibitor II] next.
88.2 (inactive)

Try O=C(CCCCCCc1ccccc1)c1ncc(-c2ccccn2)o1 [7-phenyl-1-[5-(2-pyridinyl)-1,3-oxazol-2-yl]-1-heptanone] next.
98.3 (inactive)

Try COc1cc(OC)c2cc(-c3ccncc3)cnc2c1.Cl.Cl [5,7-dimethoxy-3-(4-pyridinyl)quinoline dihydrochloride] next.
92.4 (inactive)

Try N[C@@H](Cc1ccc(F)cc1)C(=O)O [p-Fluoro-L-phenylalanine] next.
93.4 (inactive)

Try CN(C)c1ccc(O)c2c1CC1CC3C(N(C)C)C(=O)C(C(N)=O)=C(O)C3(O)C(=O)C1=C2O.Cl (centres undefined) [Minocycline hydrochloride] next.
99.7 (inactive)

----------
system: HCC1569; experiment: H1.0 immunofluorescence intensity relative to DMSO (% of DMSO); higher = stronger H1.0 induction, active = 140 or more; details: concentration: 10 µM; 24 h
Where a name gives a salt, the structure may show the parent alone.
Outcomes you can answer with include only these: active, inactive

compound="NCCCCCCCCCCN [1,10-Diaminodecane]" category_label=inactive
compound="CS(=O)(=O)CCNCc1ccc(-c2ccc3ncnc(Nc4ccc(OCc5cccc(F)c5)c(Cl)c4)c3c2)o1 [Lapatinib]" category_label=active
compound=Nc1nccc(-c2c(-c3ccc(F)cc3)ncn2C2CCNCC2)n1 category_label=active

Check the results log: what was the call for COC(=O)c1ccc2c(c1)NC(=O)C2=C(Nc1ccc(N(C)C(=O)CN2CCN(C)CC2)cc1)c1ccccc1 [Vargatef] ?
inactive

Try CCCCCC(O)C=CC=CC=CC(O)CC=CCCCC(=O)O [8(S),15(S)-DIHETE all trans] next.
inactive

Try CC(C)Cc1ccc(C(C)C(=O)NO)cc1 (stereo unspecified) [Ibuproxam] next.
inactive

Try OC[C@@H](O)[C@H]1NC[C@@H](O)[C@H]1O [1,4-Dideoxy-1,4-imino-D-mannitol hydrochloride] next.
inactive

Try Cl.OC(CN1CCN(c2cccc(Cl)c2)CC1)C(c1ccccc1)c1ccccc1 (stereo unspecified) next.
inactive

Try `Nc1ncnc2n[nH]c(Nc3ccc(F)cc3)c12` next.
inactive

Try CN1CCCN=C1C=Cc1cccs1.O=C(O)c1cc2ccccc2c(Cc2c(O)c(C(=O)O)cc3ccccc23)c1O [Pyrantel Pamoate] next.
inactive

Try COC(=O)C1C(O)CCC2CN3CCc4c([nH]c5ccccc45)C3CC21.Cl (stereo unspecified) [Yohimbine hydrochloride] next.
inactive

Try COc1cccc2oc(-c3ccccc3)cc(=O)c12 [5-Methoxyflavone] next.
inactive

Try N=c1ccn2c(n1)OC1C(O)C(CO)OC12 (stereo unspecified) [Cyclocytidine] next.
inactive

Try `CCCCCC#CCC#CCC#CCC#CCCCC(=O)O` next.
inactive

Try CN(C)CCCN1c2ccccc2Sc2ccccc21.Cl [Promazine hydrochloride] next.
inactive

Try `Cc1ccc(-c2c(-c3nn(C)c4ncnc(N5CC[C@H](N6CCCCC6)C5)c34)cnn2C)cc1` next.
inactive

Try Cl.NCCCCC(=O)O [5-Aminovaleric acid hydrochloride] next.
inactive
